Catalogue of protein stability index values
B1: EHMT1 (parent)
chain: FHKDCASRVNNASYCPHCGEESSK

# Variants of: B1
# TEST: protein stability index of a GFP-peptide fusion (GPS, HEK-293T) (PSI 1-6); higher = more stable;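 also: lentivirally expressed fusions sorted by FACS into six bins by GFP to DsRed ratio, PSI derived from sequencing read proportions per bin multiplied by bin number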
# CONDITION_CONTEXT: c terminus: a fixed tail appended
Just the number, please, no unit attached.

# annotated cases, reported protein stability index shown
{"VARIANT_SPEC": "H2G", "protein stability index": 3.6}
{"VARIANT_SPEC": "A6H", "protein stability index": 3.34}
{"VARIANT_SPEC": "Y14K", "protein stability index": 3.59}
{"VARIANT_SPEC": "C15E", "protein stability index": 4.22}
{"VARIANT_SPEC": "E20D", "protein stability index": 3.92}

Data point: `Y14V` ; protein stability index = 3.44

Data point: `K3V` ; protein stability index = 2.92

Data point: `S23N` ; protein stability index = 3.41

Data point: `K3T` ; protein stability index = 2.45

Data point: `E20P` ; protein stability index = 3.27

Data point: `E20S` ; protein stability index = 3.16

Data point: `Y14T` ; protein stability index = 3.73

Data point: `H2W` ; protein stability index = 2.62

Data point: `P16V` ; protein stability index = 3.89

Data point: `R8I` ; protein stability index = 3.94
